- Tested on: Splenocyte
- TEST: Induction of IL13 production in C57BL/6 mouse splenocytes after 48 hrs by cytometric bead array method
- Format: functional, cell-based
Activity calls are given as the source filed them. No cut-off for these calls is given here.
Return exactly one item of TRUE = active, FALSE = inactive

Below are worked cases with known answers.
| MOLECULE | ASSIGNED_CLASS |
| --- | --- |
| CCCCCCCCCCCCCCCCCCCCCCCCCC(=O)N1[C@@H](CCCCCCCCCCCCCC)[C@@H](O)[C@@H]1CO[C@H]1O[C@H](CO)[C@H](O)[C@H](O)[C@H]1O | TRUE |
| CCCCCCCCCCCCCCCCCCCCCCCCCC(=O)N1[C@H](CCCCCCCCCCCCCC)[C@@H](O)[C@@H]1CO[C@@H]1O[C@H](CO)[C@H](O)[C@H](O)[C@H]1O | FALSE |
| CCCCCCCCCCCCCCCCCCCCCCCCCC(=O)N1[C@H](CCCCCCCCCCCCCC)[C@@H](O)[C@@H]1CO[C@H]1O[C@H](CO)[C@H](O)[C@H](O)[C@H]1O | FALSE |
| CCCCCCCCCCCCCCCCCCCCCCCCCC(=O)N1[C@H](CCCCCCCCCCCCC)C[C@@H](O)[C@@H]1CO[C@H]1O[C@H](CO)[C@H](O)[C@H](O)[C@H]1O | TRUE |
| CCCCCCCCCCCCCCCCCCCCCCCCCC(=O)N1[C@@H](CCCCCCCCCCCCCC)[C@@H](O)[C@@H]1CO[C@@H]1O[C@H](CO)[C@H](O)[C@H](O)[C@H]1O | FALSE |

Q) Assay result, entry CCCCCCCCCCCCCCCCCCCCCCCCCC(=O)N1[C@@H](CCCCCCCCCCCCC)C[C@@H](O)[C@@H]1CO[C@H]1O[C@H](CO)[C@H](O)[C@H](O)[C@H]1O — outcome?
A) FALSE

Q) Assay result, entry CCCCCCCCCCCCCCCCCCCCCCCCCC(=O)N1[C@H](CCCCCCCCCCCCC)C[C@@H](O)[C@@H]1CO[C@@H]1O[C@H](CO)[C@H](O)[C@H](O)[C@H]1O — outcome?
A) FALSE

Q) Assay result, entry CCCCCCCCCCCCCCCCCCCCCCCCCC(=O)N1[C@@H](CCCCCCCCCCCCC)C[C@@H](O)[C@@H]1CO[C@@H]1O[C@H](CO)[C@H](O)[C@H](O)[C@H]1O — outcome?
A) FALSE
